Assay: Apparent permeability from apical to basolateral side in human Caco-2 cells incubated upto 95 mins by LC-MS/MS analysis
Assay type: ADME, cell-based
Details: read-out: permeability
quantity: Papp A→B at 1.583 h (×10⁻⁶ cm/s)
Respond numerically; units are ×10⁻⁶ cm/s and should not be typed.

So what does the record say about Papp A→B at 1.583 h for COc1ccc2cc(C(=O)OCCN3CCOCC3)oc2c1 ?
3.35

====

Target: hERG (KCNH2) (Homo sapiens, UniProt Q12809)
Sequence (Q12809 whole entry): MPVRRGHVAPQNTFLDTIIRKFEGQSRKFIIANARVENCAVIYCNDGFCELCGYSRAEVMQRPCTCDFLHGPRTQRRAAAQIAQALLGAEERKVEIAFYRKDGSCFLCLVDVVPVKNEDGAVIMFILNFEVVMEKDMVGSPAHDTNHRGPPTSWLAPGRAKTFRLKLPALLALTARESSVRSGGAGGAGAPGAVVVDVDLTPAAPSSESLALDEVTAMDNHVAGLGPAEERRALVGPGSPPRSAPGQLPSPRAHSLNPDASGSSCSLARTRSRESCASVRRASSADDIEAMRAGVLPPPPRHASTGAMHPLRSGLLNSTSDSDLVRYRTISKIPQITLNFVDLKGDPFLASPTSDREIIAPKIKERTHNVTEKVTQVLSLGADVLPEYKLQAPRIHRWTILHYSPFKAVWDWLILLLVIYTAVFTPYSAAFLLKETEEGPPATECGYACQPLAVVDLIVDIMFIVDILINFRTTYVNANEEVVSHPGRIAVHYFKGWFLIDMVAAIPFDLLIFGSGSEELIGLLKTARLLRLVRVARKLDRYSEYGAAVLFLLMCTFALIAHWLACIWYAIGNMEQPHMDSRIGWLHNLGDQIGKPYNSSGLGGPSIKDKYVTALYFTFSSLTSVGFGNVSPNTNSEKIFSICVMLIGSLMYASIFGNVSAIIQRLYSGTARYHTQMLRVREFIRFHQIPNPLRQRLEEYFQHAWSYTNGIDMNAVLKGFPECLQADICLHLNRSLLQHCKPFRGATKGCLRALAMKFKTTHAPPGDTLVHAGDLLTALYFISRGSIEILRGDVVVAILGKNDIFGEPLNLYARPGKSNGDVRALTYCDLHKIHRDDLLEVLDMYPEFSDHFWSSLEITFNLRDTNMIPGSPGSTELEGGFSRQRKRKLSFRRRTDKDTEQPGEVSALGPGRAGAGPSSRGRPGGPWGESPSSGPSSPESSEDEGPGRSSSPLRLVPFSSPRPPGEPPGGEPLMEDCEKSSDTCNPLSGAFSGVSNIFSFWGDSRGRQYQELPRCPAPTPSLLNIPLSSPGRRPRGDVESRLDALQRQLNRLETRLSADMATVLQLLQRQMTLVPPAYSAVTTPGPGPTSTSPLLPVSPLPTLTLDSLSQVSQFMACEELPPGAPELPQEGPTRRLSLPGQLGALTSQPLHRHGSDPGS
Assay: Inhibition of human ERG stably expressed in CHO cells at 3 uM by whole-cell patch clamp method relative to control
Type: toxicity, cell-based
Settings: CHO cells stably expressing human ERG
quantity: inhibition at 3 µM (%)
Respond numerically; units are % and should not be typed.

Field: inhibition at 3 µM (hERG (KCNH2) (Homo sapiens, UniProt Q12809)). Entry: COc1ccc2cc(C(=O)OCCN3CCOCC3)oc2c1
9.81

====

Assay: Permeability from apical to basolateral side in human Caco-2 cells assessed as recovery incubated upto 95 mins by LC-MS/MS analysis relative control
Format: ADME, cell-based
Details: read-out: Drug recovery
quantity: recovery at 1.583 h (%)
Respond numerically; units are % and should not be typed.

So what does the record say about recovery at 1.583 h for COc1ccc2cc(C(=O)OCCN3CCOCC3)oc2c1 ?
22.7

====

Organism: Danio rerio
Test: Anti osteoporosis activity in prednisone induced wildtype 3 days post-fertilization AB zebrafish osteoporosis model assessed as increase in bone fluorescence intensity (RVB = 13620 +/- 1692)
Type: functional
quantity: Flu intensity
Answer with the value's number alone.

{"smi": "COc1ccc2cc(C(=O)N3CCN(C)CC3)oc2c1", "observed": 23902}

So what does the record say about Flu intensity for CCN(CC)CCCCNC(=O)c1cc2ccc(OC)cc2o1 ?
21289

Moving on to the next compound: COc1ccc2cc(C(=O)NCC(=O)NCCN(C)C)oc2c1
23919

Moving on to the next compound: COc1ccc2cc(C(=O)N[C@H](Cc3ccccc3)C(=O)O)oc2c1
27422

Moving on to the next compound: COc1ccc2cc(C(=O)NCCN3CCCCC3)oc2c1
23225

Moving on to the next compound: COc1ccc2cc(C(=O)NCC(=O)O)oc2c1
22567
